Data provenance is ChEMBL document CHEMBL4808225.

system-under-test: UniProtKB Q13627
pKd: −log10 of the molar value.
Returns one of fulfilled or not fulfilled; fulfilled when pKd is >= 7.

Task item: State whether the measured pKd reaches 7, counting equality as reaching it, for CN(C)c1ncc(Cl)c(-c2cnn3ncccc23)n1
Reply: not fulfilled

Task item: Given CNc1nccc(-c2cnn3ncccc23)n1 , state whether its pKd is at least 7.
Reply: fulfilled

Task item: For this compound, is measured pKd 7 or higher? CN(C)c1ncc(F)c(-c2cnn3ncccc23)n1
Reply: fulfilled

* * *

Could you please report measured pIC50 for the items listed next?
system-under-test: Dual specificity tyrosine-phosphorylation-regulated kinase 1A (Homo sapiens, UniProt Q13627)
method-notes: Displacement of Kinase tracer 236 from biotinylated DYRK1A (unknown origin) expressed in Escherichia coli BL21 (DE3) incubated for 1.5 hrs by TR-FRET assay
Keep in mind that pIC50 stands for -log10 of concentration in molar terms.

Task item: So what's the measured pIC50 for this one? CN(C)c1nccc(-c2cn(C)c3cnccc23)n1
Reply: 6.01

Task item: Report pIC50 for CN(C)c1nccc(-c2cnc3cccnn23)n1 please.
Reply: 4.26

Task item: Which pIC50 is reported for this compound? CN(C)c1nc(Cl)cc(-c2cnn3ncccc23)n1
Reply: 5.87

Task item: What value of pIC50 has been reported for the following compound? CC1CCN(c2nccc(-c3cnn4ncccc34)n2)C1 (single isomer, unassigned)
Reply: 6.83

Task item: Fill blank: measured pIC50 of the compound CN(C)c1nccc(-c2c[nH]c3cnccc23)n1 is ____.
Reply: 5.99

Task item: Which pIC50 reading was recorded for the compound CC1CCN(c2nccc(-c3cnn4ncccc34)n2)C1 (configuration not stated) ?
Reply: 6.69

* * *

I'd be grateful if you could share measured IC50 for these entries.
system-under-test: Dual specificity tyrosine-phosphorylation-regulated kinase 1A (Homo sapiens)
method-notes: Displacement of Kinase tracer 236 from biotinylated DYRK1A (unknown origin) expressed in Escherichia coli BL21 (DE3) incubated for 1.5 hrs by TR-FRET assay
Give the value, in units of µM, as a plain number.

Task item: Entry F[C@H]1CCN(c2nccc(-c3cnn4ncccc34)n2)C1 : reported IC50 = ?
Reply: 0.186

Task item: Recorded IC50 of COc1cnc(N(C)C)nc1-c1cnn2ncccc12 , please.
Reply: 1.17

Task item: Query: IC50; subject: c1cnn2ncc(-c3ccnc(N4CCC5(CCOC5)C4)n3)c2c1 (configuration not stated)
Reply: 0.269

Task item: Please give the measured IC50 for this compound: c1cnn2ncc(-c3ccnc(N4CCC5CNCC54)n3)c2c1 (configuration not stated)
Reply: 1.66

Task item: Please give the measured IC50 for this compound: Nc1nccc(-c2cnn3ncccc23)n1
Reply: 0.525

Task item: Sample CN(C)c1nccc(-c2ccc(=O)n(C)c2)n1 — what was its IC50?
Reply: 7.94

Task item: # input compound: Cc1cnn2ncc(-c3ccnc(N(C)C)n3)c2c1 ; wanted: its IC50
Reply: 0.115

Task item: Recorded IC50 of CN(C)c1ncnc(-c2cnn3ncccc23)n1 , please.
Reply: 0.182

Task item: Recorded IC50 for CN(C)c1nccc(-c2cn(C)c3ncccc23)n1 , please?
Reply: 11.7

Task item: Tell me the measured IC50 of C[C@H]1CCN(c2nccc(-c3cnn4ncccc34)n2)C1 , please.
Reply: 0.115

Task item: // returns reported IC50 for input CC(C)N(c1nccc(-c2cnn3ncccc23)n1)C1CC1
Reply: 1.2

Task item: Consider the compound shown here: CN(C)c1ncc(Cl)c(-c2cnn3ncccc23)n1 What is its recorded IC50?
Reply: 0.331

* * *

system-under-test: Dual specificity protein kinase CLK1 (Homo sapiens, UniProt P49759)
Sequence (P49759 whole entry, looked up, the tested form may be a part): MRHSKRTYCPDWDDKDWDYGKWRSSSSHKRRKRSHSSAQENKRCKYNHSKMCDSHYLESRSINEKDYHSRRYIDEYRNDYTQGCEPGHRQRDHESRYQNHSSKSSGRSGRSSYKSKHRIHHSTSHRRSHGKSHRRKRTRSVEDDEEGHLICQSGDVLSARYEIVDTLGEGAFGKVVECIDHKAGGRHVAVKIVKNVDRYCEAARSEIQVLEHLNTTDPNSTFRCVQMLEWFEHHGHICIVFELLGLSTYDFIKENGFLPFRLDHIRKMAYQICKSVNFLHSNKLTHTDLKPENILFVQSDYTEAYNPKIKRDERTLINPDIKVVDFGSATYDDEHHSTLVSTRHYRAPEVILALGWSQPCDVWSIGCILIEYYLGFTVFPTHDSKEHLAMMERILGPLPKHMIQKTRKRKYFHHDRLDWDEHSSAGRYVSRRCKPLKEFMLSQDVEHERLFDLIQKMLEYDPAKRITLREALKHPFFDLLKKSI
method-notes: Inhibition of wild-type human full length CLK1 (M1 to I484 residues) expressed in bacterial expression system assessed as remaining activity at 1 uM by Kinomescan method relative to control
Assign class by Activity: not lower than 20% means satisfied; lower than 20% means not satisfied.

Task item: hey, is Activity for this one >= 20%? NC1CCN(c2nccc(-c3cnn4ncccc34)n2)C1 (single isomer, unassigned)
Reply: satisfied

Task item: Check this compound for Activity at or above 20%: FC1CCN(c2nccc(-c3cnn4ncccc34)n2)C1 (single isomer, unassigned)
Reply: satisfied

Task item: Check if Activity >= 20% (inclusive). Item: CN(C)c1ncc(F)c(-c2cnn3ncccc23)n1
Reply: satisfied

Task item: API: above_or_equal(metric=Activity, cutoff=20%) for item COc1ccnn2ncc(-c3ccnc(N(C)C)n3)c12
Reply: not satisfied

Task item: Assess whether reported Activity for CN(c1nccc(-c2cnn3ncccc23)n1)C1CC1 sits at 20% or higher.
Reply: satisfied

Task item: Entry CN(C)c1nccc(-c2cnn3ncccc23)n1 : is its Activity no less than 20%?
Reply: not satisfied

Task item: Determine whether measured Activity meets or exceeds 20% for N[C@H]1CCN(c2nccc(-c3cnn4ncccc34)n2)C1
Reply: satisfied

Task item: Confirm if Activity reported for the compound c1cnn2ncc(-c3ccnc(N4CCC45COC5)n3)c2c1 is 20% or above.
Reply: satisfied

Task item: Exam item: decide whether the reported Activity for C[C@H]1CCN(c2nccc(-c3cnn4ncccc34)n2)C1 is at least 20%.
Reply: not satisfied

Task item: Check this compound for Activity at or above 20%: CC1CCN(c2nccc(-c3cnn4ncccc34)n2)C1 (single isomer, unassigned)
Reply: not satisfied

Task item: Check the entry CC1CCCN1c1nccc(-c2cnn3ncccc23)n1 (stereo not drawn) : does Activity equal or exceed 20%?
Reply: satisfied

Task item: Check if Activity >= 20% (inclusive). Item: Cc1cnn2ncc(-c3ccnc(N(C)C)n3)c2c1
Reply: not satisfied

* * *

system-under-test: UniProt Q13627
method-notes: Displacement of Kinase tracer 236 from biotinylated DYRK1A (unknown origin) expressed in Escherichia coli BL21 (DE3) incubated for 1.5 hrs by TR-FRET assay
Binary call on IC50 with cut-off 700 nM: strictly below means Satisfied, and equality or higher means Not satisfied.

Task item: Determine if CN(C)C1CCN(c2nccc(-c3cnn4ncccc34)n2)C1 (stereo unspecified) shows IC50 strictly lower than 700 nM.
Reply: Satisfied

Task item: Please let me know if c1cnn2ncc(-c3ccnc(N4CC5CCCC5C4)n3)c2c1 (stereo unspecified) shows IC50 below 700 nM.
Reply: Not satisfied

Task item: I'd appreciate it if you could check whether CN(C)c1cc(-c2cnn3ncccc23)ccn1 has IC50 smaller than 700 nM.
Reply: Satisfied

Task item: Please state whether IC50 is below 700 nM for c1cnn2ncc(-c3ccnc(N4CCC45COC5)n3)c2c1
Reply: Satisfied

Task item: is_below(IC50, 700 nM) for Cc1cccc(N(C)c2nccc(-c3cnn4ncccc34)n2)c1 ?
Reply: Satisfied

Task item: State whether 700 nM exceeds IC50 recorded for CN(C)c1ncc(I)c(-c2cnn3ncccc23)n1 .
Reply: Not satisfied

* * *

system-under-test: Calcium/calmodulin-dependent protein kinase type 1B (Homo sapiens, UniProt Q6P2M8)
Sequence (Q6P2M8 whole entry, the tested form may be a part): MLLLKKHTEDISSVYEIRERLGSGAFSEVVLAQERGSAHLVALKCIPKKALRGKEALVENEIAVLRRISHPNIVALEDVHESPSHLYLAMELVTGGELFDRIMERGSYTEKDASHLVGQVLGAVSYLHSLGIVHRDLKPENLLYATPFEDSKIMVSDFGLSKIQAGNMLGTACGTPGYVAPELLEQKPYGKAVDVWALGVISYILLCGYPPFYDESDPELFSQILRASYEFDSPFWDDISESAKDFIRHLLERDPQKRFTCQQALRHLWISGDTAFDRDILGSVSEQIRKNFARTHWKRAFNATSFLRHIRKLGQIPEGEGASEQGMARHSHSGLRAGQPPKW
method-notes: Binding affinity to wild-type human partial length CAMK1B (W9 to A311 residues) expressed in mammalian expression system measured after 1 hr by competitive binding assay
quantity: pKd
Scale: negative log10 of molar concentration, which is what pKd denotes.

Task item: Please give the measured pKd for this compound: CN(C)c1nccc(-c2cnn3ncccc23)n1
Reply: 5.00

* * *

Provide the recorded Activity for the entries that follow.
system-under-test: Dual specificity protein kinase CLK2 (Homo sapiens) (UniProt P49760)
Sequence (P49760 whole entry, looked up, the tested form may be a part): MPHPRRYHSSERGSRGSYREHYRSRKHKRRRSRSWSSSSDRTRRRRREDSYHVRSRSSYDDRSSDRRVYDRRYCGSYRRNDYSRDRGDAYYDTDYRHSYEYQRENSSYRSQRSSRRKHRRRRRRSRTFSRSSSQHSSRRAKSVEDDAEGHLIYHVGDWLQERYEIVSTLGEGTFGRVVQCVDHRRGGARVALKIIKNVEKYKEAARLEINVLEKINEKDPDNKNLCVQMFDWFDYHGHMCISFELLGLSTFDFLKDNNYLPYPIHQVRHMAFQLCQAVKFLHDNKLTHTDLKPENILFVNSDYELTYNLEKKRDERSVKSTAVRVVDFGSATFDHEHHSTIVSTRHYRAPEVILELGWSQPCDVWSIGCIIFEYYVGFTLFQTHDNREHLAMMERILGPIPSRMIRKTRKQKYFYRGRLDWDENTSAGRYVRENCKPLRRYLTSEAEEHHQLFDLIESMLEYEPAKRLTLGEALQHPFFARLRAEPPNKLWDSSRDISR
method-notes: Inhibition of wild-type human partial length CLK2 (D144 to R498 residues) expressed in bacterial expression system assessed as remaining activity at 1 uM by Kinomescan method relative to control
Expressed in %, but write only the number.

Task item: What does the data say about its Activity? Entry: COc1ccnn2ncc(-c3ccnc(N(C)C)n3)c12
Reply: 12

Task item: Reported Activity, molecule CN(c1nccc(-c2cnn3ncccc23)n1)C1CC1 : ____
Reply: 95

Task item: Would you mind telling me what Activity value was observed for c1cnn2ncc(-c3ccnc(N4CCC45COC5)n3)c2c1 ?
Reply: 13

Task item: If you can, please state the reported Activity value of NC1CCN(c2nccc(-c3cnn4ncccc34)n2)C1 (single isomer, unassigned) .
Reply: 51

Task item: I am curious: what Activity value has been reported for CN(C)c1ncc(F)c(-c2cnn3ncccc23)n1 ?
Reply: 54

Task item: Given the molecule CC1CCCN1c1nccc(-c2cnn3ncccc23)n1 (stereo not drawn) , what is its reported Activity?
Reply: 61

Task item: What value of Activity has been reported for the following molecule? CN(C)c1nccc(-c2cnn3ncccc23)n1
Reply: 9.4

Task item: Name the reported Activity value associated with the molecule CC1CCN(c2nccc(-c3cnn4ncccc34)n2)C1 (single isomer, unassigned)
Reply: 15

Task item: Which value of Activity has been reported for C[C@H]1CCN(c2nccc(-c3cnn4ncccc34)n2)C1 in the records?
Reply: 16

Task item: For the molecule shown here, CN(C)c1nccc(-c2cnc3ncccn23)n1 , give the reported Activity.
Reply: 31

Task item: Could you tell me which Activity is on file for FC1CCN(c2nccc(-c3cnn4ncccc34)n2)C1 (single isomer, unassigned) ?
Reply: 62

Task item: Please look up its Activity: Cc1cnn2ncc(-c3ccnc(N(C)C)n3)c2c1
Reply: 13

Task item: Fill in: Activity of N[C@H]1CCN(c2nccc(-c3cnn4ncccc34)n2)C1 is ___
Reply: 72
